These measurements were taken from patent US8912227B1.

- assay-target: Human GPR120 short form (Homo sapiens)
- Construct: expressed in transfected cells
- Sequence (Q5NUL3 1-361): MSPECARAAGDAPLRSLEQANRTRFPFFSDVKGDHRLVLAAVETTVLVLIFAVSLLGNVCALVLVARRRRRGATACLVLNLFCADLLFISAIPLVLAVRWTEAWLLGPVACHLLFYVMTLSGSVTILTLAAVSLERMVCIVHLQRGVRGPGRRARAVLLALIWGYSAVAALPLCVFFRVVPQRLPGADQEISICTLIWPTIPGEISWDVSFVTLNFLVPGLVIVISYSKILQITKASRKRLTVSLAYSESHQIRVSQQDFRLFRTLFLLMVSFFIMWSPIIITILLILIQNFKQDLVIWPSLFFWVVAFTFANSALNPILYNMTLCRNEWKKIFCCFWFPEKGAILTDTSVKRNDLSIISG
- assay-overview: Human GPR120 calcium flux assay, Procedure Calcium B
- Type: cell-based
- experimental-context: HEK-293 cells expressing human GPR120 short form, 4200 cells/well, FLIPR
measurement-name: EC50 (µM)

Consider the following illustrative entries.
| compound | endpoint-result |
| --- | --- |
| COc1ccc(-n2ccc(C(F)(F)F)c2COc2ccc(CCC(=O)O)c(C)c2C)cc1 [Compound 24] | 0.227 |
| CCc1ccc(-n2ccc(C(F)(F)F)c2COc2c(F)cc(CC(C)C(=O)O)cc2F)cc1 (centres unmarked) [Compound 61] | 0.236 |
| CCc1ccc(-n2ccc(C(F)(F)F)c2COc2ccc(CCC(=O)O)c(F)c2F)cc1 [Compound 34] | 0.04 |
| Cc1cc(CCC(=O)O)ccc1OCc1c(C(F)(F)F)ccn1-c1ccc(F)cc1 [Compound 86] | 0.28 |

P = Cc1c(CCCO)ccc(OCc2c(C(F)(F)F)ccn2-c2ccc(Cl)cc2)c1C [Compound 17]
Q = Cc1ccc(-n2ccc(C(F)(F)F)c2COc2ccc(CCCO)c(F)c2F)cn1 [Compound 47, trifluoroacetic acid]
R = CCc1ccc(-n2ccc(C(F)(F)F)c2COc2ccc(CCCO)c(C)c2C)cc1 [Compound 40]
S = COc1ccc(-n2ccc(C(F)(F)F)c2COc2ccc(CCC(=O)O)c(F)c2F)cc1 [Compound 26]
Incoming: Order the entries by their reported EC50, beginning at the minimum. Return value: ordered labels per request.
Outgoing: Q, S, P, R
(Q: 0.066 µM, S: 0.23 µM, P: 0.533 µM, R: 0.896 µM)

P = O=C(O)CCc1cc(F)c(OCc2c(C(F)(F)F)ccn2-c2cccc(F)c2)c(F)c1 [Compound 85]
Q = Cc1ccc(-n2ccc(C(F)(F)F)c2COc2ccc(CCCO)c(F)c2F)cc1 [Compound 44]
R = Cc1c(CCC(=O)O)ccc(OCc2c(Br)ccn2-c2ccc(Cl)cc2)c1C [Compound 14]
S = O=C(O)CCc1ccc(OCc2c(C(F)(F)F)ccn2-c2ccc(Br)cc2)c(F)c1F [Compound 20]
Incoming: Hey, quick one: sort these by EC50, largest value first please. # the answer lists labels in the order requested
Outgoing: R, P, S, Q
(R: 1.4 µM, P: 0.448 µM, S: 0.289 µM, Q: 0.05 µM)

I = O=C(O)CCc1cc(F)c(OCc2c(C(F)(F)F)ccn2-c2ccc(Cl)c(F)c2)c(F)c1 [Compound 67]
II = Cc1c(CCCO)ccc(OCc2c(C(F)(F)F)ccn2-c2ccc(Br)cc2)c1C [Compound 18]
Incoming: Of the two listed items, which has the higher EC50? First: I Second: II Output the label that corresponds to your choice.
Outgoing: II
(II: 0.611 µM, I: 0.368 µM)

A = O=C(O)CCc1cc(F)c(OCc2c(C(F)(F)F)ccn2-c2ccc(F)cc2)c(F)c1 [Compound 87]
B = Cc1c(CCC(=O)O)ccc(OCc2c(C(F)(F)F)ccn2-c2ccc(F)c(F)c2)c1C [Compound 78]
Incoming: Between the entries labelled A and B , which has a larger EC50 value on record? Use the label to indicate which entry you chose.
Outgoing: B
